The reported measurements were obtained from the supplement of paper PMC12669032.

# Tested on: Akkermansia muciniphila
# test_protocol: growth AUC relative to DMSO control (median of replicates) (fraction); higher = more growth (less inhibition), active = hit call of the paper
# test_context: 20 µM; 24 h
I'd appreciate it if you could supply growth AUC values for the items below.
One number for each entry.

Check out these entries, answers already filled in.
CC(C)(CO)C(O)(CCc1ccc(Cl)cc1)Cn1cncn1 (stereo unspecified) tested on Akkermansia muciniphila gave growth AUC: 1.01

"CCOC(=O)[C@@H](C)Oc1ccc(Oc2nc3ccc(Cl)cc3o2)cc1" tested on Akkermansia muciniphila gave growth AUC: 0.975

"O=C(O)COc1cc(N2C(=O)C3=C(CCCC3)C2=O)c(F)cc1Cl" tested on Akkermansia muciniphila gave growth AUC: 0.82

# map each compound to its growth AUC
1. Clc1ccc(C(c2ccccc2Cl)C(Cl)Cl)cc1 (stereo unspecified)
2. Cc1ccc(Cl)cc1

**A:**
1: 1.21; 2: 0.981

# map each compound to its growth AUC
1. c1ccc(CNc2ncnc3nc[nH]c23)cc1
2. COc1ccc(Oc2ccc(NC(=O)N(C)C)cc2)cc1

**A:**
1.07
0.887
